Can you tell me IC50 for the items I'm about to list?
biological target: neutral endopeptidase enzyme (NEP) (Rattus norvegicus, UniProt P07861)
Sequence (P07861 whole entry): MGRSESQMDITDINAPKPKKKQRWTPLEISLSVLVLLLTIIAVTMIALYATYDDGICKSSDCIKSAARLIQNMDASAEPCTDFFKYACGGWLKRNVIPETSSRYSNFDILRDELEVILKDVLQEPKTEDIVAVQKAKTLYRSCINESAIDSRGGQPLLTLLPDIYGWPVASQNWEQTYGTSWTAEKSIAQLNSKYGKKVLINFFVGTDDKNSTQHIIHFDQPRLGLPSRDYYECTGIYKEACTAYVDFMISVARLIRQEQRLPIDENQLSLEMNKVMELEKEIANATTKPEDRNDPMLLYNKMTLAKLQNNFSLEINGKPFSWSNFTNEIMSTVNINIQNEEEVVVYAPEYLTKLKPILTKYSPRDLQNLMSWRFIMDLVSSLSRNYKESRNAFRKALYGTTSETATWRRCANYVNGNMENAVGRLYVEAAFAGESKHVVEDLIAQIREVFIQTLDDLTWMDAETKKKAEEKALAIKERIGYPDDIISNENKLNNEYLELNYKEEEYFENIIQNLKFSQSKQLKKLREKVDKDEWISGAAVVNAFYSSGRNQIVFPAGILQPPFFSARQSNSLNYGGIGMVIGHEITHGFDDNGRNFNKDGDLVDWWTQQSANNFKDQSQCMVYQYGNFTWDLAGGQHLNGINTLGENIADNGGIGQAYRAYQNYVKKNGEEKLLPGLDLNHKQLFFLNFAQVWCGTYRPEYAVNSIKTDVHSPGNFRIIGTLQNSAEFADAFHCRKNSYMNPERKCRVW
Answer with a number only, understood to be in nM.

Query :: So what's the measured IC50 for this one? O=C(O)c1cc(NC(=O)C(CS)Cc2cccnc2)cs1 (stereo not shown)
Result :: 12.6

Query :: Give its IC50 value. Item: COc1cccc(CC(CS)C(=O)Nc2c[nH]c(C(=O)O)c2)c1 (stereo not shown)
Result :: 5

Query :: Give the measured IC50 of O=C(O)Cc1csc(NC(=O)C(CS)Cc2ccccc2)n1 (stereo not shown) [R-2, reference compound] .
Result :: 8.8

Query :: What measured IC50 goes with O=C(O)c1cccc(NC(=O)C(CS)Cc2ccccc2)c1 (stereo not shown) [R-1, reference compound] ?
Result :: 3.12
